test: amyloid nucleation score (Sup35N fusion, yeast selection) (log enrichment); library NNK2; higher = more nucleation; inactive = no reads after selection;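 note: zero at mode of non-aggregating sequences after 7 days selection at 30°C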
Decision: amyloid nucleation score compared against 1; not below it gives satisfied, below it gives not satisfied.

Below, 2 substances whose answers are already recorded.
substance	classification
NLLTPFRLRPKTHLDLYRSC	not satisfied
FGLTRPEKWEHLHVYCNYMS	not satisfied

Identify whether the reported amyloid nucleation score of the following substance is 1 or greater: `NSDISARCGSCVYLWYVSDD`
satisfied

Identify whether the reported amyloid nucleation score of the following substance is 1 or greater: `YLRTYLW`
not satisfied

Identify whether the reported amyloid nucleation score of the following substance is 1 or greater: `LRVMSSISDDNAQEFDDFCV`
satisfied

Identify whether the reported amyloid nucleation score of the following substance is 1 or greater: `TICVSSVRRTGKGSWVRDWA`
not satisfied

Identify whether the reported amyloid nucleation score of the following substance is 1 or greater: `RYRLISTTFGVAHSFEPPRL`
satisfied

====

assay: amyloid nucleation score (Sup35N fusion, yeast selection) (log enrichment); library NNK3; higher = more nucleation; inactive = no reads after selection
quantity kind: amyloid nucleation score

Some entries whose results are on file:
substance	amyloid nucleation score
LRFRLNSRVYTTHNIKVPSL	inactive
FRYPIYGFFGMTGPTNSLTA	inactive
GEDVGPCMTESCRYAYLRYT	inactive
GASLYWIP	0.234
LFLVYGGYIFAQRKFAFNSS	inactive

amyloid nucleation score reported for this substance `GFNVTWFEIYGGLEDSWWFC` : inactive

amyloid nucleation score reported for this substance `YRPWHDIRTICCSTSSSTIE` : 2.5

amyloid nucleation score reported for this substance `QCRYRRSST` : inactive

amyloid nucleation score reported for this substance `CIVLLLTPSLGDWYTEDDFL` : inactive

amyloid nucleation score reported for this substance `YQGYRFNC` : inactive

amyloid nucleation score reported for this substance `FIITPTYIICQRLFY` : inactive

amyloid nucleation score reported for this substance `SWGFHEWSVACQICRYVDRP` : inactive

amyloid nucleation score reported for this substance `CVKVGDGCLHASIGAR` : inactive

amyloid nucleation score reported for this substance `PSNMRG` : 0.147

amyloid nucleation score reported for this substance `VFNRSCINFKRYGSA` : inactive

====

assay: amyloid nucleation score (Sup35N fusion, yeast selection) (log enrichment); library NNK3; higher = more nucleation; inactive = no reads after selection
quantity kind: amyloid nucleation score

Some entries whose results are on file:
substance	amyloid nucleation score
LTFCVSMKCKIW	inactive
DISSLR	inactive
FYIKVVNPCIPYT	inactive
NSLMYFRGKFLFSIYNCYVH	inactive

With those in mind, consider the next substance.
amyloid nucleation score reported for this substance `GFGESGNR` : inactive

====

assay: amyloid nucleation score (Sup35N fusion, yeast selection) (log enrichment); library NNK2; higher = more nucleation; inactive = no reads after selection
Decision: amyloid nucleation score compared against -0.1; not below it gives label 1, below it gives label 0.

substance	classification
PPRGRTAINMTSKCQARVRP	label 1
CDVNYL	label 0
IVLSDSISQAFWASICHQGF	label 0
WYMQGTLTAMGRGQTQYLSC	label 1
ANYTCTLTSL	label 1

Identify whether the reported amyloid nucleation score of the following substance is -0.1 or greater: `SLIKKFMLCFVYQREAHLLS`
label 1

Identify whether the reported amyloid nucleation score of the following substance is -0.1 or greater: `YINSMLSSYFDSLWEGSKSR`
label 0

Identify whether the reported amyloid nucleation score of the following substance is -0.1 or greater: `LLIFGVVLRVMNVVDPIRDI`
label 0

Identify whether the reported amyloid nucleation score of the following substance is -0.1 or greater: `VVFTGWYHEGWRVV`
label 1

Identify whether the reported amyloid nucleation score of the following substance is -0.1 or greater: `IPVSMWQDRVTEVLDFGLRK`
label 1

Identify whether the reported amyloid nucleation score of the following substance is -0.1 or greater: `ISHISDL`
label 1

Identify whether the reported amyloid nucleation score of the following substance is -0.1 or greater: `RINVPDVRMDPNYQIHF`
label 0

Identify whether the reported amyloid nucleation score of the following substance is -0.1 or greater: `YKILQFETSFRT`
label 0

Identify whether the reported amyloid nucleation score of the following substance is -0.1 or greater: `FIGVSGLRCRGVMCSCYASY`
label 1

Identify whether the reported amyloid nucleation score of the following substance is -0.1 or greater: `RRPIGDW`
label 1

Identify whether the reported amyloid nucleation score of the following substance is -0.1 or greater: `RIGLMNL`
label 1

Identify whether the reported amyloid nucleation score of the following substance is -0.1 or greater: `GHMQYSYFLDLYSKLFCVFN`
label 1

Identify whether the reported amyloid nucleation score of the following substance is -0.1 or greater: `SIKGGSIEIEMYELESWVQL`
label 0

Identify whether the reported amyloid nucleation score of the following substance is -0.1 or greater: `HGTCISSGNKWARWTLS`
label 1

Identify whether the reported amyloid nucleation score of the following substance is -0.1 or greater: `ILGDNRLKPVTLSRNVALYY`
label 0

Identify whether the reported amyloid nucleation score of the following substance is -0.1 or greater: `DVRHQWFEMVRVVIICKPVN`
label 0

Identify whether the reported amyloid nucleation score of the following substance is -0.1 or greater: `VGFISTMWHMYSELLGQINV`
label 0

Identify whether the reported amyloid nucleation score of the following substance is -0.1 or greater: `SVGSGPVSSLRRKHDRGDTP`
label 1

Identify whether the reported amyloid nucleation score of the following substance is -0.1 or greater: `HLSGYKLLIKSVYFE`
label 1

Identify whether the reported amyloid nucleation score of the following substance is -0.1 or greater: `RSLDQSIVNRVVVYFSGWCV`
label 1

Identify whether the reported amyloid nucleation score of the following substance is -0.1 or greater: `IFLQNTSSEWLLSARDRLRY`
label 1

Identify whether the reported amyloid nucleation score of the following substance is -0.1 or greater: `LRNFSYIRQGGSRVSSASGY`
label 0

Identify whether the reported amyloid nucleation score of the following substance is -0.1 or greater: `SVGPLLYATMSMAGDSVAGA`
label 1

Identify whether the reported amyloid nucleation score of the following substance is -0.1 or greater: `ADKCYGYASACVFSGSLVC`
label 1

Identify whether the reported amyloid nucleation score of the following substance is -0.1 or greater: `FGKYDGTYRSPVGYGFMWS`
label 1

Identify whether the reported amyloid nucleation score of the following substance is -0.1 or greater: `VWLALEWVLGWSTMR`
label 1

====

test: amyloid nucleation score (Sup35N fusion, yeast selection) (log enrichment); library NNK3; higher = more nucleation; inactive = no reads after selection
amyloid nucleation score by entry:
Format: numeric value only, no unit, no commentary.

Some entries whose results are on file:
substance	amyloid nucleation score
IMQFGDFYIIQRERRSYVLW	2.25
ANCCYPDLSCYVLYCGSSCL	2.41
NCLSPTCRSVL	2.07
HTTALIGANDSA	0.024
YNMNVFAGGCAMCMWISRLF	2.61

amyloid nucleation score reported for this substance `PLLLQWHHYNLLGRS` : 0.193

amyloid nucleation score reported for this substance `YFVTFVYTKLLCNVRSLL` : 0.578

amyloid nucleation score reported for this substance `NSQGQNYILTFYR` : 1.82

====

experiment: amyloid nucleation score (Sup35N fusion, yeast selection) (log enrichment); library NNK3; higher = more nucleation; inactive = no reads after selection
quantity kind: amyloid nucleation score

Some entries whose results are on file:
substance	amyloid nucleation score
RVWVMV	inactive
LGIGVKYSTGWCFVIMSSAM	inactive
TTTCHLRIKSNMRLSQEWLG	1.17
LVIWYLQSLYSPGINCQDLR	inactive
CRTQYKCRIAIWGYKFQPER	inactive
RMFKFGTCYKSVGPTKRAEC	inactive
SRSINCFPMLILLVL	inactive
CVRSTCQALGMGRWEPHCAI	inactive

amyloid nucleation score reported for this substance `LRHGSSEFNYGNFFLCLFEQ` : 2.56

====

amyloid nucleation score by entry:
assay: amyloid nucleation score (Sup35N fusion, yeast selection) (log enrichment); library NNK1; higher = more nucleation; inactive = no reads after selection
Format: numeric value only, no unit, no commentary.

Some entries whose results are on file:
substance	recorded number
CWGLLSGDCHALEKFNRFYL	-0.086
CNHSTSFVEVVERL	-0.085
YDLTSFGFSVIVCSDDTRSG	-0.043
LGKRDFSGFSAKSQLFK	-0.613
KWTLTRLYVACRYNDHSRLS	1.07
MRAEVALFCGNSASVVCGAW	-0.221

amyloid nucleation score reported for this substance `RLTECSYCCNSDYITHMELL` : -0.317

====

assay: amyloid nucleation score (Sup35N fusion, yeast selection) (log enrichment); library NNK3; higher = more nucleation; inactive = no reads after selection
quantity kind: amyloid nucleation score

Some entries whose results are on file:
substance	amyloid nucleation score
VFYLCNFWGCWTCSIAVIVS	0.576
ETPSALCILYVFYCHAYWSH	inactive
LTMVWDNIAMYMHWHMTTPI	inactive
DFWRYDSS	inactive
YYDYLRWLLEHIHFCTWGPY	inactive
GYWGTLSERPYTELIAGTSI	inactive
VNDPEAR	-0.391
LSKFFRWV	inactive

With those in mind, consider the next substance.
amyloid nucleation score reported for this substance `SYMLNSCSWRTK` : inactive
